Test system: hepatocytes
Assay: Hepatocyte stability assay, mouse
Format: in vitro ADME
Details: 10 μM compound, Table 6
assayReadout: CIint

Example results:
>  <compound>
O=C(O)/C=C/C(=O)OC1(c2cc(Cl)cc(Cl)c2)CCC1 [Intermediate 14]

>  <assayReadout>
CIint

>  <measured>
++ (++ means >30-110)

$$$$
>  <compound>
O=C(O)/C=C/C(=O)OC1(c2cc(Cl)c(F)c(Cl)c2)CCC1 [Intermediate 25]

>  <assayReadout>
CIint

>  <measured>
++ (++ means >30-110)

$$$$
>  <compound>
C[C@H]1C[C@](OC(=O)/C=C/C(=O)O)(c2ccc(C(F)(F)F)cc2)C1 (single isomer, unassigned) [Intermediate 33]

>  <assayReadout>
CIint

>  <measured>
+++ (+++ means >15-30)

$$$$
>  <compound>
O=C(O)/C=C/C(=O)OC(c1ccc(C(F)(F)F)cc1)C(F)(F)F (single isomer, unassigned) [Intermediate 45]

>  <assayReadout>
CIint

>  <measured>
+ (+ means >110-277)

$$$$
>  <compound>
O=C(O)/C=C/C(=O)OC1CCCCCC1 [Intermediate 8]

>  <assayReadout>
CIint

>  <measured>
++ (++ means >30-110)

$$$$

// lookup CIint for O=C(O)/C=C/C(=O)OC1(c2ccc(OC(F)(F)F)cc2)CCC1 [Intermediate 30]
+++ (+++ means >15-30)

Moving on to the next compound: O=C(O)/C=C/C(=O)OC1(c2ccc(C(F)(F)F)cc2)COC1 [Intermediate 18]
++ (++ means >30-110)

Moving on to the next compound: O=C(O)/C=C/C(=O)OC1CCCCCCC1 [Intermediate 6]
++ (++ means >30-110)

Moving on to the next compound: O=C(O)/C=C/C(=O)OC1CC2(CCC2)C1 [Intermediate 7]
++ (++ means >30-110)

Moving on to the next compound: O=C(O)/C=C/C(=O)OC(c1ccc(C(F)(F)F)cc1)C(F)(F)F (single isomer, unassigned) [Intermediate 44]
+ (+ means >110-277)

Moving on to the next compound: O=C(O)/C=C/C(=O)OC1(c2cccc(C(F)(F)F)c2)CCC1 [Intermediate 10]
++ (++ means >30-110)

Moving on to the next compound: O=C(O)/C=C/C(=O)OC1(c2ccc(C(F)(F)F)c(F)c2)CCC1 [Intermediate 16]
+++ (+++ means >15-30)

Moving on to the next compound: O=C(O)/C=C/C(=O)OC1(c2cc(F)c(C(F)(F)F)c(F)c2)CCC1 [Intermediate 29]
+++ (+++ means >15-30)

Moving on to the next compound: O=C(O)/C=C/C(=O)OC1(c2ccc(C(F)(F)F)cc2)CC1 [Intermediate 38]
++ (++ means >30-110)

Moving on to the next compound: O=C(O)/C=C/C(=O)OC1(c2ccc(C(F)(F)F)cc2)CSC1 [Intermediate 17]
+ (+ means >110-277)

Moving on to the next compound: COC(=O)/C=C/C(=O)OCCN1C(=O)CCC1=O [reference compound]
>277 μL min^−1 10^−6 cells

---

Assay: Hepatocyte stability assay, human
Format: in vitro ADME
Conditions: cryopreserved hepatocytes, 10 μM compound, Table 6, read-out: T½
assayReadout: half-life at 10 μM

// lookup half-life at 10 μM for O=C(O)/C=C/C(=O)OC1CCCCCCC1 [Intermediate 6]
> 1.67 h

Moving on to the next compound: O=C(O)/C=C/C(=O)OC1(c2ccc(OC(F)(F)F)cc2)CCC1 [Intermediate 30]
> 1.67 h

Moving on to the next compound: O=C(O)/C=C/C(=O)OC1(c2ccc(C(F)(F)F)s2)CCC1 [Intermediate 36]
> 1.67 h

Moving on to the next compound: O=C(O)/C=C/C(=O)OC1(c2ccc(C(F)(F)F)cc2)CCC1 [Intermediate 3]
> 1.67 h

Moving on to the next compound: O=C(O)/C=C/C(=O)OC1(c2cc(Cl)c(F)c(Cl)c2)CCC1 [Intermediate 25]
> 1.67 h

Moving on to the next compound: O=C(O)/C=C/C(=O)OC1CC2(CCC2)C1 [Intermediate 7]
0.5 to 1.67 h
